Origin of the recorded values: ChEMBL document CHEMBL4477257

- Test system: MCF7
- ASSAY_COMMENT: Cytotoxicity against human MCF7 cells assessed as cell viability at 10 uM after 2 days by MTT assay relative to control
- Format: functional
- TEST_SETTINGS: MCF7, 48 h, read-out: Activity
READOUT_LABEL: viability at 10 µM (%)
Give the quantity in %, number only.

Sample answers from the record:
{"MOLECULE": "CC(=O)c1cc(/C=C/c2ccc(F)cc2)cc2cc(-c3ccccc3)[nH]c12", "READOUT_LABEL": "viability at 10 µM", "UNIT_SYMBOL": "%", "OBSERVED": 46.5}
{"MOLECULE": "CC(=O)c1cc(/C=C/c2ccccc2)cc2cc(-c3ccccc3)[nH]c12", "READOUT_LABEL": "viability at 10 µM", "UNIT_SYMBOL": "%", "OBSERVED": 86.5}
{"MOLECULE": "CC(=O)c1cc(-c2ccccc2)cc2cc(-c3ccc(F)cc3)[nH]c12", "READOUT_LABEL": "viability at 10 µM", "UNIT_SYMBOL": "%", "OBSERVED": 91.9}

Asked: Query: viability at 10 µM; subject: `CC(=O)c1cc(/C=C/c2ccc(F)cc2)cc2cc(-c3ccc(F)cc3)[nH]c12`
Given back: 67.4

Asked: # viability at 10 µM lookup, item `COc1ccc(-c2cc3cc(/C=C/c4ccc(F)cc4)cc(C(C)=O)c3[nH]2)cc1`
Given back: 76.5

Asked: What value of measured viability at 10 µM is listed for `CC(=O)c1cc(/C=C/c2ccccc2)cc2cc(-c3ccc(F)cc3)[nH]c12` ?
Given back: 69.5
